# assay-name: Partition coefficient in octanol-phosphate buffer at pH 7.4
Rule: logD below 1 gives fulfilled. Equal to or above 1 gives not fulfilled.

# input Find out if reported logD for COc1cccc2c1C(=O)c1c(O)c3c(c(O)c1C2=O)C[C@@](O)(C(C)=O)C[C@@H]3OC1CC(NCC(N)=O)C(O)C(C)O1 (stereo partly drawn) is less than 1
# output not fulfilled

# input Find out if reported logD for COc1cccc2c1C(=O)c1c(O)c3c(c(O)c1C2=O)C[C@@](O)(C(C)=O)C[C@@H]3OC1CC(N(CC#N)CC(=O)[O-])C(O)C(C)O1.[Na+] (stereo partly drawn) is less than 1
# output fulfilled

# input Is it true that logD reported for COCC(C#N)NC1CC(O[C@H]2C[C@](O)(C(C)=O)Cc3c(O)c4c(c(O)c32)C(=O)c2c(OC)cccc2C4=O)OC(C)C1O (stereo partly drawn) is less than 1?
# output not fulfilled

# input Report whether reported logD is lower than 1 (strictly) for COc1cccc2c1C(=O)c1c(O)c3c(c(O)c1C2=O)C[C@@](O)(C(C)=O)C[C@@H]3OC1CC(NCC(=O)O)C(O)C(C)O1 (stereo partly drawn)
# output fulfilled

# input Problem: For the compound COCC(C#N)NC1CC(O[C@H]2C[C@](O)(C(=O)CO)Cc3c(O)c4c(c(O)c32)C(=O)c2c(OC)cccc2C4=O)OC(C)C1O (stereo partly drawn) , is logD under 1?
# output fulfilled

# input Is 1 strictly greater than the compound's reported logD? compound: COc1cccc2c1C(=O)c1c(O)c3c(c(O)c1C2=O)C[C@@](O)(C(=O)CO)C[C@@H]3OC1CC(NCC#N)C(O)C(C)O1 (stereo partly drawn)
# output not fulfilled

# input Determine whether this compound shows logD lower than 1 (ties excluded): COc1cccc2c1C(=O)c1c(O)c3c(c(O)c1C2=O)C[C@@](O)(C(C)=O)C[C@@H]3OC1CC(NCC#N)C(O)C(C)O1 (stereo partly drawn)
# output not fulfilled

# input Take the compound CCOC(=O)CCCNC1CC(O[C@H]2C[C@](O)(C(C)=O)Cc3c(O)c4c(c(O)c32)C(=O)c2c(OC)cccc2C4=O)OC(C)C1O (stereo partly drawn) and say whether its logD is less than 1.
# output not fulfilled

---

# assay-name: Compound was evaluated for the change in Tm of isolated helical DNA in solution.
# Assay type: ADME
test-readout: Change in Tm
Just the number, please.

# input Name the reported Change in Tm value associated with the molecule CCOC(=O)CNC1CC(O[C@H]2C[C@](O)(C(C)=O)Cc3c(O)c4c(c(O)c32)C(=O)c2c(OC)cccc2C4=O)OC(C)C1O (stereo not given in full)
# output 0

# input Can you share its Change in Tm? I mean this molecule: COc1cccc2c1C(=O)c1c(O)c3c(c(O)c1C2=O)C[C@@](O)(C(=O)CO)C[C@@H]3OC1CC(NCC#N)C(O)C(C)O1 (stereo not given in full)
# output 13.9

# input Record request: Change in Tm value, item COc1cccc2c1C(=O)c1c(O)c3c(c(O)c1C2=O)C[C@@](O)(C(C)=O)C[C@@H]3OC1CC(NCC(=O)O)C(O)C(C)O1 (stereo not given in full)
# output 2.2

# input Look up Change in Tm for this molecule: COc1cccc2c1C(=O)c1c(O)c3c(c(O)c1C2=O)C[C@@](O)(C(=O)CO)C[C@@H]3OC1CC(N2CCOCC2C#N)C(O)C(C)O1 (stereo not given in full)
# output 8.7

# input Quick check: Change in Tm of COc1cccc2c1C(=O)c1c(O)c3c(c(O)c1C2=O)C[C@@](O)(C(=O)CO)C[C@@H]3O[C@H]1C[C@H](N)[C@H](O)[C@H](C)O1 ?
# output 12.8

---

# assay-name: Compound was evaluated for the change in Tm of isolated helical DNA in solution.
# Type: ADME
test-readout: Change in Tm
Just the number, please, no unit attached.

# input Query: Change in Tm; subject: CCOC(=O)CCCNC1CC(O[C@H]2C[C@](O)(C(C)=O)Cc3c(O)c4c(c(O)c32)C(=O)c2c(OC)cccc2C4=O)OC(C)C1O (stereo partly drawn)
# output 8.4

# input Report Change in Tm for COc1cccc2c1C(=O)c1c(O)c3c(c(O)c1C2=O)C[C@@](O)(C(C)=O)C[C@@H]3OC1CC(N(CC#N)CC(=O)[O-])C(O)C(C)O1.[Na+] (stereo partly drawn) please.
# output 2.2

# input Dear colleague, I am looking for the recorded Change in Tm of the following compound: COc1cccc2c1C(=O)c1c(O)c3c(c(O)c1C2=O)C[C@@](O)(C(C)=O)C[C@@H]3O[C@H]1C[C@H](N)[C@H](O)[C@H](C)O1
# output 10.5

---

Would you kindly list Change in Tm for each of these compounds?
# assay-name: Compound was evaluated for the change in Tm of isolated helical DNA in solution.
# Type: ADME
// keep it numeric: no unit symbol after the value

# input Name the reported Change in Tm value associated with the compound COCC(C#N)NC1CC(O[C@H]2C[C@](O)(C(C)=O)Cc3c(O)c4c(c(O)c32)C(=O)c2c(OC)cccc2C4=O)OC(C)C1O (some centres undefined)
# output 9.4

# input Look up Change in Tm for this compound: COCC(C#N)NC1CC(O[C@H]2C[C@](O)(C(=O)CO)Cc3c(O)c4c(c(O)c32)C(=O)c2c(OC)cccc2C4=O)OC(C)C1O (some centres undefined)
# output 12.5

# input Which Change in Tm reading was recorded for the compound COc1cccc2c1C(=O)c1c(O)c3c(c(O)c1C2=O)C[C@@](O)(C(C)=O)C[C@@H]3OC1CC(NCC(N)=O)C(O)C(C)O1 (some centres undefined) ?
# output 3.5

# input Bench note: what Change in Tm did COc1cccc2c1C(=O)c1c(O)c3c(c(O)c1C2=O)C[C@@](O)(C(C)=O)C[C@@H]3OC1CC(NCC#N)C(O)C(C)O1 (some centres undefined) show?
# output 11.7
